- Test Description: Tmax in Sprague-Dawley rat at 20 mg/kg, po
- Format: ADME, organism-based
- Set-up: dose 20 mg/kg, route oral
- Measurement Conditions: in vivo
Readout Kind: Tmax
Answer as a quantity: numeral, then unit.

Task item: State the recorded Tmax for this entry: "O=C(/C=C/c1ccc2c(ccn2S(=O)(=O)c2ccccc2)c1)NO"
Reply: 1.7 h

---

- Test Description: Clearance in Sprague-Dawley rat at 2 mg/kg, iv
- Format: ADME, organism-based
- Design: dose 2 mg/kg, route intravenous
- Measurement Conditions: in vivo
Readout Kind: clearance (mL/min/kg)
Answers are plain numbers, in mL/min/kg.

Task item: Which measured clearance value corresponds to "O=C(/C=C/c1ccc2c(ccn2S(=O)(=O)c2ccccc2)c1)NO" ?
Reply: 35.5
